Exercise: state measured cell viability for each of the compounds provided.
system: P12-Ichikawa; assay: cell viability relative to DMSO control; higher = less cytotoxic; settings: RPMI 5 mM glucose + 10% dialyzed FBS; 48 h; 0.00234 µM
Provide a numeric answer, followed by its unit.

Would you please look over these solved cases?
{"columns": ["SMILES_NOTATION", "cell viability"],
 "data": [
  ["CN1\\C(=C(\\O)C2=C(C=CC=C2)[S+]1([O-])=O)C(=O)NC3=CC=CC=N3", "97.7%"],
  ["CC[C@]12\\C=C/CN3CC[C@]4([C@@H](N(C)C5=CC(=C(C=C45)[C@]6(C[C@H]7C[C@H](CN(C7)CC8=C6[NH]C9=C8C=CC=C9)C(C)(F)F)C(=O)OC)OC)[C@](O)([C@@H]1OC(C)=O)C(=O)OC)[C@H]23", "83%"],
  ["COc1cc2c(Nc3ccc(Br)cc3F)ncnc2cc1OCC1CCN(C)CC1", "86.1%"]
]}

Now take the following compound into account.
Lookup: Record request: cell viability value, item O=C(Nc1ncc(SCCN2CCCC2)s1)[C@]1(c2ccc([S+](=O)([O-])C3CC3)cc2)C[C@H]1C1CCCCC1
Found: 122%
